experiment: Half life in rat; assay type: ADME, organism-based; conditions: in vivo
In this section we review reported log10(half-life) values for a set of molecules.
property: log10(half-life) (log10 of the value in h)

# molecule, log10(half-life)
data = [
    ("C[C@@H]1CN(Cc2ccc(F)cc2)[C@@H](C)CN1C(=O)COc1ccc(Cl)cc1CC(=O)O", 0.57),
    ("C[C@@H]1CN(Cc2ccc(F)cc2)[C@@H](C)CN1C(=O)COc1ccc(Cl)cc1CS(=O)(=O)O", 0.66),
    ("C[C@@H]1CN(Cc2ccc(F)cc2)[C@@H](C)CN1C(=O)COc1ccc(Cl)cc1C(=O)NCCN", 0.00),
    ("C[C@@H]1CN(Cc2ccc(F)cc2)CCN1C(=O)COc1ccc(Cl)cc1NC(N)=O [BX 471 FREE BASE]", -0.15),
    ("C[C@@H]1CN(Cc2ccc(F)cc2)[C@@H](C)CN1C(=O)COc1ccc(Cl)cc1C(=O)CCC(=O)O", 0.36),
    ("C[C@@H]1CN(Cc2ccc(F)cc2)[C@@H](C)CN1C(=O)COc1ccc(Cl)cc1C(=O)O", 1.15),
]

----------
assay: Plasma clearance in iv dosed rat; type: ADME, organism-based
Everything with clearance lower than 20 mL/min/kg is not met; everything else, including exactly 20 mL/min/kg, is met.

# compound, labelClass
rows = [
    ("C[C@@H]1CN(Cc2ccc(F)cc2)[C@@H](C)CN1C(=O)COc1ccc(Cl)cc1C(=O)CCC(=O)O", "met"),
    ("C[C@@H]1CN(Cc2ccc(F)cc2)CCN1C(=O)COc1ccc(Cl)cc1NC(N)=O [BX 471 FREE BASE]", "met"),
    ("C[C@@H]1CN(Cc2ccc(F)cc2)[C@@H](C)CN1C(=O)COc1ccc(Cl)cc1CS(=O)(=O)O", "not met"),
    ("C[C@@H]1CN(Cc2ccc(F)cc2)[C@@H](C)CN1C(=O)COc1ccc(Cl)cc1C(=O)NCCN", "met"),
    ("C[C@@H]1CN(Cc2ccc(F)cc2)[C@@H](C)CN1C(=O)COc1ccc(Cl)cc1CC(=O)O", "not met"),
    ("C[C@@H]1CN(Cc2ccc(F)cc2)[C@@H](C)CN1C(=O)COc1ccc(Cl)cc1C(=O)O", "not met"),
]

----------
As shown below, each of these compounds has a reported CLhep predicted value.
experiment: Metabolic stability in rat liver microsomes; type: ADME, Microsome
property: CLhep predicted (mL/min/kg)

# compound, unitAnnotation, reported
data = [
    ("C[C@@H]1CN(Cc2ccc(F)cc2)[C@@H](C)CN1C(=O)COc1ccc(Cl)cc1C(=O)CCC(=O)O", "mL/min/kg", 31),
    ("C[C@@H]1CN(Cc2ccc(F)cc2)[C@@H](C)CN1C(=O)COc1ccc(Cl)cc1CS(=O)(=O)O", "mL/min/kg", 21),
    ("C[C@@H]1CN(Cc2ccc(F)cc2)[C@@H](C)CN1C(=O)COc1ccc(Cl)cc1C(=O)NCCN", "mL/min/kg", 22),
    ("C[C@@H]1CN(Cc2ccc(F)cc2)CCN1C(=O)COc1ccc(Cl)cc1", "mL/min/kg", 63),
    ("C[C@@H]1CN(Cc2ccc(F)cc2)[C@@H](C)CN1C(=O)COc1ccc(Cl)cc1C(=O)O", "mL/min/kg", 20),
    ("C[C@@H]1CN(Cc2ccc(F)cc2)CCN1C(=O)COc1ccc(Cl)cc1NC(N)=O [BX 471 FREE BASE]", "mL/min/kg", 62),
    ("C[C@@H]1CN(Cc2ccc(F)cc2)[C@@H](C)CN1C(=O)COc1ccc(Cl)cc1CC(=O)O", "mL/min/kg", 25),
    ("C[C@@H]1CN(Cc2ccc(F)cc2)[C@@H](C)CN1C(=O)COc1ccc(Cl)cc1NC(=O)NCCN", "mL/min/kg", 24),
]

----------
Quick list: CLhep predicted per entry.
experiment: Metabolic stability in monkey liver microsomes; type: ADME, Macaca fascicularis, Microsome; details: cynomolgus monkey

# compound, CLhep predicted / mL/min/kg
records = [
    ("C[C@@H]1CN(Cc2ccc(F)cc2)CCN1C(=O)COc1ccc(Cl)cc1NC(N)=O [BX 471 FREE BASE]", 42),
    ("C[C@@H]1CN(Cc2ccc(F)cc2)[C@@H](C)CN1C(=O)COc1ccc(Cl)cc1CS(=O)(=O)O", 18),
    ("C[C@@H]1CN(Cc2ccc(F)cc2)[C@@H](C)CN1C(=O)COc1ccc(Cl)cc1C(=O)NCCN", 36),
    ("C[C@@H]1CN(Cc2ccc(F)cc2)[C@@H](C)CN1C(=O)COc1ccc(Cl)cc1NC(=O)NCCN", 18),
]

----------
Below is a list of entries, each paired with its recorded CLhep predicted value.
assay: Metabolic stability in monkey liver microsomes; format: ADME, Macaca fascicularis, Microsome; conditions: cynomolgus monkey

# chemicalStructure, unitAnnotation, CLhep predicted
data = [
    ("C[C@@H]1CN(Cc2ccc(F)cc2)[C@@H](C)CN1C(=O)COc1ccc(Cl)cc1C(=O)O", "mL/min/kg", 31),
    ("C[C@@H]1CN(Cc2ccc(F)cc2)[C@@H](C)CN1C(=O)COc1ccc(Cl)cc1CC(=O)O", "mL/min/kg", 18),
    ("C[C@@H]1CN(Cc2ccc(F)cc2)[C@@H](C)CN1C(=O)COc1ccc(Cl)cc1C(=O)CCC(=O)O", "mL/min/kg", 18),
    ("C[C@@H]1CN(Cc2ccc(F)cc2)CCN1C(=O)COc1ccc(Cl)cc1", "mL/min/kg", 40),
]

----------
experiment: Volume of distribution at steady state in rat; format: ADME, organism-based; conditions: in vivo, read-out: Vdss
property: Vd (L/kg)

# compound, property, reported
rows = [
    ("C[C@@H]1CN(Cc2ccc(F)cc2)[C@@H](C)CN1C(=O)COc1ccc(Cl)cc1C(=O)O", "Vd", 2.4),
    ("C[C@@H]1CN(Cc2ccc(F)cc2)[C@@H](C)CN1C(=O)COc1ccc(Cl)cc1C(=O)NCCN", "Vd", 7.7),
    ("C[C@@H]1CN(Cc2ccc(F)cc2)[C@@H](C)CN1C(=O)COc1ccc(Cl)cc1C(=O)CCC(=O)O", "Vd", 4),
    ("C[C@@H]1CN(Cc2ccc(F)cc2)[C@@H](C)CN1C(=O)COc1ccc(Cl)cc1CC(=O)O", "Vd", 3.2),
    ("C[C@@H]1CN(Cc2ccc(F)cc2)CCN1C(=O)COc1ccc(Cl)cc1NC(N)=O [BX 471 FREE BASE]", "Vd", 1.7),
    ("C[C@@H]1CN(Cc2ccc(F)cc2)[C@@H](C)CN1C(=O)COc1ccc(Cl)cc1CS(=O)(=O)O", "Vd", 2.6),
]
